target-or-system: T1, cyno PD-L1 (cyno)
T1 construct: Soluble analyte in BLI
experimental-details: BLI (Octet), antibody on AHC biosensor, cyno PD-L1 as analyte

binder	Kd / nM
antibody A17 (antibody, V domains shown, Tested as full-length mAb made in CHO cells; also called L17H17) VH: QVQLQESGPGLVKPSETLSLTCTVSGGSISGYSWSWIRQPPGKGLEWIGYIYYSGSTNNNPSLKSRVTISVDTSKNQFSLKLSSVTAADTAVYFCARDDGIAVAGYYFYYGLDVWGQGTTVTVSS VL: DIQMTQSPSSLSASVGDRVTITCRASQGIRNDLGWYQQKPGKAPKRLIYAASSLQSGVPSRFSGSGSGTEFTLTISSLQPEDFATYYCLQHNTYPWTFGQGTKVEIK	762
antibody A22 (antibody, V domains shown, Tested as full-length mAb made in CHO cells; also called L22H22) VH: QVQLVQSGAEVKKPGASVKVSCKASGYTFTSYGISWVRQAPGQGLEWMGWISAYNGNTNYAQKLQGRVTMTTDTSTSTAYMELRSLRSDDTAVYYCARGFYYGSWYFDYWGQGTLVTVSS VL: DIQMTQSPSSLSASVGDRVTITCRASQGISSWLAWYQQKPEKAPKSLIYAASSLQSGVPSRFSGSGSGTDFTLTISSLQPEDFATYYCQQYNSYPPTVGGGTKVEIK	38.5
